Assignment: determine reported protein stability index for the given sequences.
# assay_summary: protein stability index of a GFP-peptide fusion (yeast GPS) (PSI 1-4); higher = more stable; sorted into four equal gates, so the index is relative within each strain
# test_settings: pdr5∆
One number for each entry.

Past entries and their recorded results:
| sequence_string | protein stability index |
| --- | --- |
| NMLICAPTGSGKTNIAL [BRR2] | 3.12 |
| SGPFKVNGVPLRRVNAR [RPL6A] | 2.84 |
| SNGNNLPLNKPRLEKLI [RGR1] | 3.36 |

Give one value of protein stability index per listed sequence.
1. KNDSLEKTINDLQRTQT [YIL149C/MLP2]
2. KKIIKCDEHMGLSLAGL [PRE5]

Output:
[3.02, 3.2]

Hi team, please reply with protein stability index for each item in this list.
1. DKKYKGLTTVWLLSALG [REC8]
2. ATPGRLIDSLENHLLVM [PRP28]
3. DVVAHRQLAGAIGYEPL [DIS3]
4. LIFGTIASKMSLAPEAD [RPT3]
5. GDNEYITLRTSGELLQG [MCD1]
6. NQTRKAHRNGIKKPKTY [RPL29]
7. NVFGQDNEDSDNLFGET [SWI3]
8. QIISNAHNKPSLFSKIK [YAR002W/NUP60]

Output:
[2.38, 2.37, 2.43, 2.78, 3.11, 2.98, 3.7, 2.98]

Hey, can you go through the list below and give me protein stability index for every item?
1. LEFSALSAADIVAQSEV [RPO31]
2. EAGLQLCRQGHNMLNLL [PRP8]

Output:
3.13
2.29

====

# assay_summary: protein stability index of a GFP-peptide fusion (yeast GPS) (PSI 1-4); higher = more stable; sorted into four equal gates, so the index is relative within each strain
# test_settings: pdr5∆
measure: protein stability index
Give bare numbers.

| sequence_string | protein stability index |
| --- | --- |
| LREKEDKKNSSDPNNQS [YJL039C/NUP192] | 3.09 |
| QAKLKKNVETLEEKILA [SMC4] | 2.98 |

In the following, a different sequence is considered.
Item: KELAELKVQKLSRPSLP [RPL35A] | protein stability index: 2.92

====

# assay_summary: protein stability index of a GFP-peptide fusion (yeast GPS) (PSI 1-4); higher = more stable; sorted into four equal gates, so the index is relative within each strain
# test_settings: ubr1∆
For each entry below, report its protein stability index value.
Numbers only.

| sequence_string | protein stability index |
| --- | --- |
| GASINSMKANTSTNPNG [ARP7] | 2.93 |

Could you tell me protein stability index for each of these sequences? They are listed below.
1. GGCDYIFSLLTGYPDEP [CYT1]
2. AYSNTNTNTENENRNTG [SNF11]

Output:
1: 3.08; 2: 2.95

====

# assay_summary: protein stability index of a GFP-peptide fusion (yeast GPS) (PSI 1-4); higher = more stable; sorted into four equal gates, so the index is relative within each strain
# test_settings: ubr1∆
measure: protein stability index
One number for each entry.

| sequence_string | value_measured |
| --- | --- |
| LLIADSRRPEPKKFGGK [RPS16A] | 3.07 |

# batch: return protein stability index for each of the 7 sequences below
1. LRKQKDSSTTSSNSQQS [ITC1]
2. QGGAMNKKSEQALDISK [SRP72]
3. EDNAGVIANPKGEMKGS [RPL23A]
4. QAKLKKNVETLEEKILA [SMC4]
5. PYGVYHPPFIKYACLAI [SIN4]
6. LVDQGFNYSGKDMLYSG [RET1]
7. AFSFGAKPDEKKNDEVS [YJL041W/NSP1]

Output:
1. 3.19
2. 3.07
3. 1.85
4. 3.13
5. 1.17
6. 3.52
7. 3.26

For each of the sequences below, note its protein stability index.
1. TDKKAFLGALKYLPHAI [PRP8]
2. SKKVTSGVPRLKEILNV [RPO21]

Output:
1. 2.96
2. 1.1
